# reported koff; entries follow
# MEASUREMENT TARGET: T1, recombinant human HER2 extracellular domain protein (human, UniProt P04626 23-652)
# T1 construct: range 23-652; Range is printed for the immunogen/panning protein; also called ErbB2; recombinant HER2 protein
# EXPERIMENT SUMMARY: BLI, Protein A capture

// solved cases for koff follow
>>> assay_value("2126-Hu-L04 (antibody, IgG1, V domains shown, IgG1/Cκ) VH: QVQLVQSGSELKKPGASVKVSCKASGYTFTDYSMHWVRQAPGQGLEWMGWINTETGEPTYADDFKGRFVFSLDTSVSTAYLQISSLKAEDTAVYFCVRVGRYDYAMDYWGQGTTVTVSS VL: DIQMTQSPSSLSASVGDRVTITCKASQDVYTYVAWYQQKPGKAPKLLINSASYRYTGVPSRFSGSGSGTDFTLTISSLQPEDFATYYCQQHYSTPPTFGGGTKVEIK")
"0.000611 s⁻¹"
>>> assay_value("2126-Hu-L08 (antibody, IgG1, V domains shown, IgG1/Cκ) VH: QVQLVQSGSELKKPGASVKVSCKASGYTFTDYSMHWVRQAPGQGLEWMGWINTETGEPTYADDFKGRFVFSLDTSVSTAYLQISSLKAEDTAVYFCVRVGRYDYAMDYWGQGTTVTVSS VL: DIQMTQSPSSLSASVGDRVTITCKASQDVYTAVAWYQQKPGKAPKLLINSASERYTGVPSRFSGSGSGTDFTLTISSLQPEDFATYYCQQHYSTPPTFGGGTKVEIK")
"0.00062 s⁻¹"

Pending binder:
Return value of koff for input 2126-Hu-L03 (antibody, IgG1, V domains shown, IgG1/Cκ) VH: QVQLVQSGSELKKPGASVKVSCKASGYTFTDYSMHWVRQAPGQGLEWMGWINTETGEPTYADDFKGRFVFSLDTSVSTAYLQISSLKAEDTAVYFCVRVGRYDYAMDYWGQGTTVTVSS VL: DIQMTQSPSSLSASVGDRVTITCKASQDVSTAVAWYQQKPGKAPKLLINSASYRYTGVPSRFSGSGSGTDFTLTISSLQPEDFATYYCQQHYSTPPTFGGGTKVEIK , no commentary. 0.00186 s⁻¹
